Give log2 fold change of degron read counts for every item shown.
# assay-system: T1, CRBN, Q96SW2;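 note: pooled lentiviral library of zinc finger degron-EGFP fusions in mCherry-positive Jurkat cells, FACS-sorted after compound exposure, with degron abundance counted by next-generation sequencing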
# T1 chain: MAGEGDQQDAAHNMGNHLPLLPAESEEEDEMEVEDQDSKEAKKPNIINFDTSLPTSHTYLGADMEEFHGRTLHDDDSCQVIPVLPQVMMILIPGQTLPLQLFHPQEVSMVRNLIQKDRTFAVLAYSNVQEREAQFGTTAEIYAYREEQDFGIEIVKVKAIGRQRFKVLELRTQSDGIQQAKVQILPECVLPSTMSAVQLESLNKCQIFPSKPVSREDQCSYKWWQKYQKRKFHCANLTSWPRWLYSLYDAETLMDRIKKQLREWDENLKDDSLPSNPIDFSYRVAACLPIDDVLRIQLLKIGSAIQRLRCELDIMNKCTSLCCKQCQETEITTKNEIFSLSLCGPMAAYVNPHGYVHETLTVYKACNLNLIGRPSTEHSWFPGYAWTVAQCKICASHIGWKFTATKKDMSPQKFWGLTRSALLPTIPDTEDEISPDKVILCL
# experiment-summary: log2 fold change of degron read counts, EGFP-low vs EGFP+ sorted cells (limma voom), compound-induced degradation; higher = more compound-induced degradation of the degron-EGFP fusion; degrons are variants of IKZF1/3 zinc finger 2; compound dose not given here
# measurement-parameters: Jurkat; 18 h; compound: compound 19 (5-tert-butyl-thalidomide)
Over roughly 8,300 sequences, “log2 fold change of degron read counts, EGFP-low vs EGFP+ sorted cells (limma voom), compound-induced degradation” has its median near -1.1; the highest 2% begin near 3.2. The full list was thinned out, with the highest values kept by preference.

Note to self: log2 fold change of degron read counts recorded for LHCPICGFSCTQKGNLLRHIKL [46L_47H_49P_50I_52G_53F_54S_55C_67L_, Q9UKT9] was 3.33

Quick note, log2 fold change of degron read counts for FDCEVCGAGFTQKGNLLRHIKL [46F_47D_49E_50V_52G_53A_54G_55F_67L_, Q9UKT9] landed at 1.18

The sequence FTCPICGADFTQKGNLLRHIKL [46F_47T_49P_50I_52G_53A_54D_55F_67L_, Q9UKT9] showed log2 fold change of degron read counts equal to -0.0637

The sequence listed as LWCPICGFPCTQKGNLLRHIKL [46L_47W_49P_50I_52G_53F_54P_55C_67L_, Q9UKT9] has a reported log2 fold change of degron read counts of 1.54

Measured log2 fold change of degron read counts of FNCPICGHYFTQKGNLLRHIKL [46F_47N_49P_50I_52G_53H_54Y_55F_67L_, Q9UKT9] : -1.6

Just so you know, measured log2 fold change of degron read counts for FICEVCGAGFTQKGNLLRHIKL [46F_47I_49E_50V_52G_53A_54G_55F_67L_, Q9UKT9] came out at -0.137

GET /value?item= FICPVCGAYFTQKGNLLRHIKL [46F_47I_49P_50V_52G_53A_54Y_55F_67L_, Q9UKT9] &field=log2 fold change of degron read counts returns -0.575

Notebook: FECEVCGAGFTQKGNLLRHIKL [46F_47E_49E_50V_52G_53A_54G_55F_67L_, Q9UKT9] , log2 fold change of degron read counts read as 1.72

The recorded log2 fold change of degron read counts for FHCPICGADFTQKGNLLRHIKL [46F_47H_49P_50I_52G_53A_54D_55F_67L_, Q9UKT9] is -0.22

For record FHCDICGAPFTQKGNLLRHIKL [46F_47H_49D_50I_52G_53A_54P_55F_67L_, Q9UKT9] the listed log2 fold change of degron read counts is 3.18

Short answer for FWCPICGAMFTQKGNLLRHIKL [46F_47W_49P_50I_52G_53A_54M_55F_67L_, Q9UKT9] : log2 fold change of degron read counts was 2.54

# log2 fold change of degron read counts of LFCNQCGFNCTQKGNLLRHIKL [46L_47F_49N_50Q_52G_53F_54N_55C_67L_, Q9UKT9] = -1.81

Notebook: LECPICGFSCTQKGNLLRHIKL [46L_47E_49P_50I_52G_53F_54S_55C_67L_, Q9UKT9] , log2 fold change of degron read counts read as 1.9

Item: FSCNICGATFTQKGNLLRHIKL [46F_47S_49N_50I_52G_53A_54T_55F_67L_, Q9UKT9] | log2 fold change of degron read counts: 0.862

response.value for LGCPICGFSCTQKGNLLRHIKL [46L_47G_49P_50I_52G_53F_54S_55C_67L_, Q9UKT9] (field: log2 fold change of degron read counts) = 3.62

log2 fold change of degron read counts reading for FNCPICGHTFTQKGNLLRHIKL [46F_47N_49P_50I_52G_53H_54T_55F_67L_, Q9UKT9] : -2.31

sequence FCCEQCGAQFTQKGNLLRHIKL [46F_47C_49E_50Q_52G_53A_54Q_55F_67L_, Q9UKT9] , log2 fold change of degron read counts observed: -0.606

Data point: LDCPICGFSCTQKGNLLRHIKL [46L_47D_49P_50I_52G_53F_54S_55C_67L_, Q9UKT9] ; log2 fold change of degron read counts = 1.61

Measured log2 fold change of degron read counts of FYCPICGHYFTQKGNLLRHIKL [46F_47Y_49P_50I_52G_53H_54Y_55F_67L_, Q9UKT9] : -0.992

Record FTCDVCGADFTQKGNLLRHIKL [46F_47T_49D_50V_52G_53A_54D_55F_67L_, Q9UKT9] , field log2 fold change of degron read counts: -2.29

Just so you know, measured log2 fold change of degron read counts for LACPICGFSCTQKGNLLRHIKL [46L_47A_49P_50I_52G_53F_54S_55C_67L_, Q9UKT9] came out at 3.69

Consider FTCPICGAPFTQKGNLLRHIKL [46F_47T_49P_50I_52G_53A_54P_55F_67L_, Q9UKT9] . Its measured log2 fold change of degron read counts is 2.68

Just so you know, measured log2 fold change of degron read counts for FGCPICGAPFTQKGNLLRHIKL [46F_47G_49P_50I_52G_53A_54P_55F_67L_, Q9UKT9] came out at 3.74

The reported log2 fold change of degron read counts of the sequence LKCPICGFSCTQKGNLLRHIKL [46L_47K_49P_50I_52G_53F_54S_55C_67L_, Q9UKT9] was 1.33

Form: sequence = LMCPICGFSCTQKGNLLRHIKL [46L_47M_49P_50I_52G_53F_54S_55C_67L_, Q9UKT9] ; log2 fold change of degron read counts = 1.63

// field: log2 fold change of degron read counts; key: FTCEICGHLFTQKGNLLRHIKL [46F_47T_49E_50I_52G_53H_54L_55F_67L_, Q9UKT9] ; value = -2.72

For FICNQCGADFTQKGNLLRHIKL [46F_47I_49N_50Q_52G_53A_54D_55F_67L_, Q9UKT9] the sequence record lists log2 fold change of degron read counts as -3.68

# log2 fold change of degron read counts (sequence: FGCNICGAPFTQKGNLLRHIKL [46F_47G_49N_50I_52G_53A_54P_55F_67L_, Q9UKT9] ) is 0.653

So, FGCPICGADFTQKGNLLRHIKL [46F_47G_49P_50I_52G_53A_54D_55F_67L_, Q9UKT9] ? Its log2 fold change of degron read counts was 1.78
